These data points were gathered from the supplement of paper PMC10567573.

# test.summary: protein stability index of a GFP-peptide fusion (GPS, HEK-293T) (PSI 1-6); higher = more stable;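 further: 24-mer peptide tiles fused after GFP, lentivirally expressed, FACS-sorted into six equal bins by GFP/DsRed ratio, decoded by Illumina sequencing, PSI is the read-weighted mean bin number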
# applied.conditions: treatment: MLN4924 1 uM, 8 h; c terminus: a fixed tail appended
value.type: protein stability index
Number, no unit, nothing else.

Enquiry: Recorded protein stability index for QDLLKERQKDLKFLSEEEYWKLQI [CCNC] , please?
Return: 3.67

Enquiry: Recorded protein stability index for EAQISDPFAPEPTPPTTTAEIATA [SNAP91] , please?
Return: 5.46

Enquiry: Recorded protein stability index for LGEDNQPETQLFWDKEPWFWHDTL [TLE6] , please?
Return: 3.32

Enquiry: Recorded protein stability index for KLKLTNNHLDPFGHIILNSMHKYQ [TBX5] , please?
Return: 2.34

Enquiry: Recorded protein stability index for ALLLGQGANINAQTEETQETALTL [ANKRD17] , please?
Return: 4.32

Enquiry: Recorded protein stability index for QAPPQDSSNKKEKKVLNHGYDDDN [DYRK1B] , please?
Return: 5.51

Enquiry: Recorded protein stability index for PDFPSINMDPAGLDDEDDTSIGMP [RETREG3] , please?
Return: 5.53

Enquiry: Recorded protein stability index for EVNSAEELEGLIADPDEMRMQALL [FEM1C] , please?
Return: 5

Enquiry: Recorded protein stability index for CTFSLTHPANRSCRETGSFLDLFR [SLC22A15] , please?
Return: 2.14

Enquiry: Recorded protein stability index for RASQREYEELRNSERAEVQRLEEQ [RSPH3] , please?
Return: 5.3

Enquiry: Recorded protein stability index for ASAQKFSSRSTVPTPAKRRSSALW [NET1] , please?
Return: 3.5

Enquiry: Recorded protein stability index for RVIEVLPRGATAAVLAPDSSNASS [SEPHS2] , please?
Return: 4.42

Enquiry: Recorded protein stability index for ITEALRPAGVGVVVEATHMCMVMR [GCH1] , please?
Return: 2.29

Enquiry: Recorded protein stability index for ISGLRFETQLKTLAQFPNTLLGNP [KCNA1] , please?
Return: 2.41

Enquiry: Recorded protein stability index for VRYNAEKKKVGNYYTTPIYRFRMK [YJU2B] , please?
Return: 2.86

Enquiry: Recorded protein stability index for KELADFIRERATIEETYSKAMAKL [FCHO1] , please?
Return: 3.31

Enquiry: Recorded protein stability index for HGHMCIAFELLGKNTFEFLKENNF [CLK3] , please?
Return: 2.92

Enquiry: Recorded protein stability index for SFFAAQAGARKIYAVEASTMAQHA [CARM1] , please?
Return: 2.78

Enquiry: Recorded protein stability index for YPEEADGTLDCISMALTCTFNRWG [RBBP5] , please?
Return: 2.11

Enquiry: Recorded protein stability index for LDGQLDFEEFVHYLQDHEKKLRLV [SLC25A25] , please?
Return: 2.98

Enquiry: Recorded protein stability index for CQMFLGKTEAEIAHIALETLEGHQ [FLOT1] , please?
Return: 3.37

Enquiry: Recorded protein stability index for STYYWPRPRRYVQPPEMIGPMRPE [GAGE1] , please?
Return: 3.01

Enquiry: Recorded protein stability index for IEPRERAKFKRKYKVKLVEKRAFR [NOP53] , please?
Return: 3.15

Enquiry: Recorded protein stability index for DICLAQLEELGTLNVFQTVSRMRT [PTPN9] , please?
Return: 2.79

Enquiry: Recorded protein stability index for GLEGLEDAPPVELQLLHECSPSQM [FANCE] , please?
Return: 4.66

Enquiry: Recorded protein stability index for DDGSQDPEVLDRESRDRPSCAPSA [PWWP2B] , please?
Return: 5.21

Enquiry: Recorded protein stability index for VKKLMRTSTPPPASVINNMLAEIF [ZBED1] , please?
Return: 2.02

Enquiry: Recorded protein stability index for TTNVKSASRQKTSLGIELHCNVSN [ZNF396] , please?
Return: 3.82

Enquiry: Recorded protein stability index for HSMHKYQPRIHLVRAAQLCSQHWG [TBX6] , please?
Return: 2.22

Enquiry: Recorded protein stability index for IYQQLSRYRGLGLLASVPSNPNGN [CRY1] , please?
Return: 2.74

Enquiry: Recorded protein stability index for VAVNGESVETLDHDSVVEMIRKGG [PDZK1] , please?
Return: 4.59

Enquiry: Recorded protein stability index for IGLGHIYSGTFALIGAAAFLGGVV [CLCN6] , please?
Return: 3.27

Enquiry: Recorded protein stability index for LGDLLMPTMAPAGQPAPVSMVPPS [SNAP91] , please?
Return: 3.51

Enquiry: Recorded protein stability index for RQQVTNHGRGTEVLLEEPLPLETA [ZNF263] , please?
Return: 5.04

Enquiry: Recorded protein stability index for SVNISLDNLLPGMQPSKPQQPSLN [CLINT1] , please?
Return: 3.51

Enquiry: Recorded protein stability index for VPKVGQRFNRIGLPPKVGSFQLFV [PI4K2A] , please?
Return: 2.34

Enquiry: Recorded protein stability index for EKEYKTYKENFLKRFQLTKLPPYL [USP39] , please?
Return: 2.93

Enquiry: Recorded protein stability index for LRIPFPRDCGEEMQNGAGASRTST [TNXB] , please?
Return: 4.28

Enquiry: Recorded protein stability index for EAVSTLLGAVAVFAVGYIKISWST [SLC19A2] , please?
Return: 2.98

Enquiry: Recorded protein stability index for SRGYAYRDNGHSNRDEHSSRGYRN [RBMY1A1] , please?
Return: 4.21

Enquiry: Recorded protein stability index for ERVEAFSDGVYAIVATLLILDICE [TMEM175] , please?
Return: 3.15

Enquiry: Recorded protein stability index for SSITRQKKRLQELALALKKCKPSL [TMEM120A] , please?
Return: 2.81

Enquiry: Recorded protein stability index for RGSRGAPPPLGPVVPVLVFPPDLV [MOSPD3] , please?
Return: 2.96

Enquiry: Recorded protein stability index for YARYHQAFADRDQSERQRHESQQL [TEKT4] , please?
Return: 3.66

Enquiry: Recorded protein stability index for SSPNLQVSSDGTLKYMEVTLRPTD [PCDHGC5] , please?
Return: 4.12

Enquiry: Recorded protein stability index for QQKQQIMAALNSQTAVQFQQYAAQ [ACBD3] , please?
Return: 3.27

Enquiry: Recorded protein stability index for SEELLSLKYENDYPSVILRDPLQT [ETS1] , please?
Return: 4.14

Enquiry: Recorded protein stability index for WILLAESNSADDETDDPRRYQKYG [OAS1] , please?
Return: 3.32

====

# test.summary: protein stability index of a GFP-peptide fusion (GPS, HEK-293T) (PSI 1-6); higher = more stable
# applied.conditions: treatment: MLN4924 1 uM, 8 h; c terminus: a fixed tail appended
value.type: protein stability index
Number, no unit, nothing else.

Enquiry: Recorded protein stability index for LFLFGYKFSGLYILSFTVIMVGFI [SLC35F2] , please?
Return: 3.18

Enquiry: Recorded protein stability index for ELIDNLKEAQYIRTELVEQAFRAI [PCMTD2] , please?
Return: 2.29

Enquiry: Recorded protein stability index for QEPMVPAKLGTQAEKDRRLKKKHQ [PPFIA4] , please?
Return: 5.56

Enquiry: Recorded protein stability index for DKDRRFVFSYFLATDMISIFEPPV [EFHC1] , please?
Return: 2.72

Enquiry: Recorded protein stability index for DHKPKLCRLAKGENGYGFHLNAIR [PDZK1] , please?
Return: 2.36

Enquiry: Recorded protein stability index for KYLKVPQDPLKFYKKIYFCHSCQL [IQUB] , please?
Return: 1.97

Enquiry: Recorded protein stability index for AFCNGQKLQVSQQEDITKSLLVTE [IMPA1] , please?
Return: 3.73

Enquiry: Recorded protein stability index for ETGKLLWKVRYDTFIVSCKFSPDG [WDR88] , please?
Return: 2.04

Enquiry: Recorded protein stability index for QVPYPPRQLLRDFQSRLPYQYLHY [P3H4] , please?
Return: 2.24

Enquiry: Recorded protein stability index for SLVKELLRMCSHGEGKINYYNFVR [EFHC1] , please?
Return: 2.46

Enquiry: Recorded protein stability index for KQQNVAHCMLVSNRVSWWGSTLAM [ZBED1] , please?
Return: 2.03

Enquiry: Recorded protein stability index for SEAKLYGRCELARVLHDFGLDGYR [SPACA3] , please?
Return: 2.42

Enquiry: Recorded protein stability index for LLCGAAFGRLVANVLKSYIGLGHI [CLCN6] , please?
Return: 3.14

Enquiry: Recorded protein stability index for IVSHFQKLFDVPSLNGVYPRMNEV [CEP70] , please?
Return: 2.56

Enquiry: Recorded protein stability index for GQGAMFRLPTDSHFPYDLHLRSQS [NEUROD6] , please?
Return: 3.11

Enquiry: Recorded protein stability index for LQLKETLATQEPTDNQVRLRKRKE [DLC1] , please?
Return: 5.32
